The reader will find reported GI50 values listed item by item below.
# Tested on: HOP-92
# ASSAY_INFO: NCI tumour cell line growth inhibition, 48 h
Calls of active or inactive are those of the source. Cut-off read from the data, not from the text of the source: active = GI50 up to about 1.1 µM and inactive = higher.
OBSERVABLE: GI50

COMPOUND | RESULT_VALUE
COc1ccccc1N1CCN(Cn2c(=O)oc3cccnc32)CC1 | > 100 µM (inactive)
Cc1cnc2c(c1)C(=O)N(c1ccc([N+](=O)[O-])cc1)S2(=O)=O | > 100 µM (inactive)
CC(=O)[C@]1(O)Cc2c(O)c3c(c(O)c2[C@@H](OC2CC(N)C(O)C(C)O2)C1)C(=O)c1c(OCc2ccccc2)cccc1C3=O (stereo partly specified) | 3.18 µM (inactive)
C#CC(O)/C=C/C(O)CCCC(O)CC#CC(O)C#CCCCCC(O)/C=C/CCCC(=O)CCCCCCCCCCCCCCCC(O)C(O)C#CC(=O)O (stereo unspecified) | > 25 µM (inactive)
Clc1ccccc1/C=C\C1(c2ccccc2)OCCO1 | 28.9 µM (inactive)
Cc1cc(N(CCC#N)CCC#N)ccc1/N=N/c1ccc([N+](=O)[O-])cc1 | 55 µM (inactive)
[N-]=[N+]=NC1=C(c2ccccc2)C(=O)c2cccc3cccc1c23 | 17.7 µM (inactive)
CC1(CCCCO)C=CC(S(=O)(=O)c2ccccc2)CC1 (stereo unspecified) | 2.84 µM (inactive)
Cc1cccc(Cl)c1NC(N)=S | 35.4 µM (inactive)
CCOC(=O)c1c2c(n(Cc3ccccc3)c1C)C(=O)C(=O)c1ccccc1-2 | 0.802 µM (active)
Cc1cccc(C)c1NC(=O)CCCC(=O)CC(=O)/C=C/c1ccccc1 | > 100 µM (inactive)

* * *

The reader will find reported GI50 values listed item by item below.
# Tested on: CCRF-CEM
# ASSAY_INFO: NCI tumour cell line growth inhibition, 48 h
The source made the active and inactive calls. Rule as the data show it: active = GI50 up to about 1.1 µM and inactive = higher.
OBSERVABLE: GI50

COMPOUND | OBSERVABLE | RESULT_VALUE
NC(=S)N/N=C(/CC(=O)c1ccccc1)C(=O)Nc1ccc(Cl)c(Cl)c1 | GI50 | 28.6 µM (inactive)
Cc1ccc(S(=O)(=O)C(C#N)c2nc3ccccc3nc2-n2ccnc2)cc1 (stereo unspecified) | GI50 | > 100 µM (inactive)
CC1(C)CC(=O)C(CC(C(=O)C(=O)Nc2cc(C(F)(F)F)ccc2Cl)C(=O)c2ccco2)C(=O)C1 (stereo unspecified) | GI50 | > 100 µM (inactive)
CCOC(=O)C(C)NC(=O)C(C)NC(=O)C(C)NC(=O)C(C)NC(=O)C(C)NC(=O)OCc1ccccc1 (stereo unspecified) | GI50 | > 100 µM (inactive)
CC1=C(c2cc(C(=O)Nc3cccc(C(F)(F)F)c3)ncn2)Sc2ccccc2N1 | GI50 | > 100 µM (inactive)
C#CC(O)/C=C/C(O)CCCC(O)CC#CC(O)C#CCCCCC(O)/C=C/CCCC(=O)CCCCCCCCCCCCCCCC(O)C(O)C#CC(=O)O (stereo unspecified) | GI50 | > 25 µM (inactive)

* * *

# Test system: CAKI-1
# ASSAY_INFO: NCI tumour cell line growth inhibition, 48 h
Calls of active or inactive are those of the source. Rule as the data show it: active = GI50 up to about 1.1 µM and inactive = higher.

COMPOUND | GI50
O=C(/C=C/c1ccsc1)c1cccs1 | 27.3 µM (inactive)
CC(=O)OC(=C(C#N)C#N)c1nccnc1C(C)=O | > 20 µM (inactive)
C=CCNC(=O)N(CCCCC(NC(C)=O)C(=O)NCc1ccccc1)Cc1ccccc1 (stereo not given) | > 100 µM (inactive)
COc1cccc(NC(=O)CC(=O)N2N=C(C)C(/N=N/c3ccc(S(=O)(=O)CCOS(=O)(=O)O)cc3)C2=O)c1 (stereo not given) | 2.45 µM (inactive)
Cc1cc(N(CCC#N)CCC#N)ccc1/N=N/c1ccc([N+](=O)[O-])cc1 | > 100 µM (inactive)
c1ccc2c(c1)ccc1nc(-c3ccc4c(c3)OCO4)c3c(c12)CCC3 | > 100 µM (inactive)
CC1CCC2C(C)C(=O)OC3OC4(C)CCC1C32OO4 (stereo not given) | > 100 µM (inactive)
CC(C)(C)C1=CC(=CC=C2C=CN(CCCCCCCCCCCO)C=C2)C=C(C(C)(C)C)C1=O | 2.48 µM (inactive)
COc1ccc(/C=N/n2c(Cc3ccccc3)n[nH]c2=O)c(OC)c1 | > 51.4 µM (inactive)
c1ccc(CN(Cc2ccccn2)Cn2cccn2)nc1 | > 100 µM (inactive)
NNC(=O)N/N=C1/C(=O)N(c2ccc(Cl)c(Cl)c2)C(=O)C(=O)C1c1nc2ccccc2o1 (stereo not given) | > 100 µM (inactive)
Cc1cc(C)c(C#N)c(SC(=S)NC(=O)c2ccccc2)n1 | > 100 µM (inactive)
Oc1ccc(-c2nc(-c3cccnc3)c(-c3ccc(Cl)cc3)[nH]2)cc1O | 15.1 µM (inactive)
COc1cc(Br)cc2nc(-c3cccs3)oc12 | > 86.5 µM (inactive)
CCOC(=O)c1c[nH]c(C(=O)C=[N+]=[N-])c1C1CCN(CC)C1=S (stereo not given) | > 100 µM (inactive)
O=c1[nH]c2cc(Cl)ccc2nc1/C(=N/Nc1ccccc1)C(O)c1ccco1 (stereo not given) | > 100 µM (inactive)
CCOC(=O)C(C)NC(=O)C(C)NC(=O)C(C)NC(=O)C(C)NC(=O)C(C)NC(=O)OCc1ccccc1 (stereo not given) | > 100 µM (inactive)
Cc1ccc2c(c1)NC(c1ccc(C(=O)O)cc1)c1cccn1-2 (stereo not given) | 15.6 µM (inactive)
CSc1nc(-c2ccccc2)[nH]c(=O)n1 | > 100 µM (inactive)
COc1cccc(NC(=O)N/C(=C/c2ccc(N(CCC#N)CCC#N)cc2)NC(=O)c2cc([N+](=O)[O-])ccc2Cl)c1 | > 100 µM (inactive)
CCCC(=O)OCC1(CO)C/C(=C/CC(C(C)C)C(C)C)C(=O)O1 (stereo not given) | > 100 µM (inactive)
O=C(Cc1ccc(Cl)cc1)Nc1ccc2oc(-c3ccccc3)nc2c1 | > 100 µM (inactive)
COc1cc(/C=C2/SC(c3ccccc3)N(c3cc(Cl)ccc3Cl)C2=O)cc(OC)c1OC (stereo not given) | 23.2 µM (inactive)
Cc1[nH]c(=O)[nH]c(=O)c1/C=C/C(=O)NC(CO)C[S+]([O-])Cc1ccccc1 (stereo not given) | > 300 µM (inactive)
Cn1c(=O)c2c(ncn2CCNC(CO)C(O)c2ccc([N+](=O)[O-])cc2)n(C)c1=O (stereo not given) | > 100 µM (inactive)
CC(C)(SCc1ccccc1)C(N)C(=O)O (stereo not given) | > 100 µM (inactive)
Cc1ccc(S(=O)(=O)Oc2ccc(OS(=O)(=O)c3ccc(C)cc3)c3c2C(=O)c2ccccc2C3=O)cc1 | > 100 µM (inactive)
NC1(C(=O)O)CCC(C(=O)O)CC1 (stereo not given) | > 100 µM (inactive)
Cc1ccc(Oc2cc(C)ccc2P(=O)(O)O)cc1 | > 100 µM (inactive)
COC(=O)C(Cc1nc2ccccc2nc1O)C(=O)C(=O)Nc1ccc([N+](=O)[O-])cc1[N+](=O)[O-] (stereo not given) | 32.4 µM (inactive)
CCOC(=O)C(NCc1ccccc1)(NC(=O)c1ccccc1)C(F)(F)F (stereo not given) | > 100 µM (inactive)
CC1(C23CC4CC(CC(C4)C2)C3)n2c(=O)n(-c3ccccc3)c(=O)n2C1(C)C12CC3CC(CC(C3)C1)C2 (stereo not given) | > 100 µM (inactive)
O=C(O)Cc1ccc(Oc2nc3ccccc3nc2C(=O)O)cc1 | 96.8 µM (inactive)
CCOC(=O)c1c(N2CCCC2)nsc1Nc1ccc(F)cc1 | 37.5 µM (inactive)
O=C(O)CN(CC(=O)O)C1CCCCC1N1CC(=O)OC(=O)C1 (stereo not given) | > 100 µM (inactive)

* * *

# System: NCI-H23
# ASSAY_INFO: NCI tumour cell line growth inhibition, 48 h
Calls of active or inactive are those of the source. No stated cut-off is given here; in the data, active = GI50 up to about 1.1 µM and inactive = higher.

COMPOUND | EXPERIMENTAL_SYSTEM | GI50
NC(=O)CCC(N=C(N)c1csc(C2OC(CO)C(O)C2O)n1)C(=O)O (stereo not drawn) | NCI-H23 | > 100 µM (inactive)
NCCCN1CCN(CCCNc2ccc3ncn4c5ccccc5c(=O)c2c34)CC1 | NCI-H23 | 2.51 µM (inactive)
O=C1/C(=C/c2ccccc2S)N=C(c2ccccc2)N1c1nc2ccc(Sc3ccccc3)cc2[nH]1 | NCI-H23 | 37 µM (inactive)

* * *

# Tested on: KM12
# ASSAY_INFO: NCI tumour cell line growth inhibition, 48 h
Calls of active or inactive are those of the source. No stated cut-off is given here; in the data, active = GI50 up to about 1.1 µM and inactive = higher.
OBSERVABLE: GI50

MOLECULE | OBSERVABLE | RESULT_VALUE
O=C(Nc1ccc(N2C(=O)CSC2c2ccccc2O)cc1)c1ccc(N2C(=O)CSC2c2ccccc2O)cc1 (centres undefined) | GI50 | > 100 µM (inactive)
NS(=O)(=O)c1ccc(NCc2cccc3c(=O)c4ccc(Cl)cc4oc23)cc1 | GI50 | 21.4 µM (inactive)
COc1ccc(OC)c2[nH]c(Sc3c([N+](=O)[O-])ncn3C)nc12 | GI50 | 43.1 µM (inactive)
C#CCC[C@@H]1O[C@@]1(C)CC/C=C(\C)CC/C=C/C=O | GI50 | 36.9 µM (inactive)
C=C(C)C(=O)OC1C/C(CO)=C\C(O)C/C(C)=C/C2OC(=O)C(=C)C21 (centres undefined) | GI50 | 19.2 µM (inactive)
Oc1nc(-c2cccc(F)c2)nc2ccccc12 | GI50 | > 79.6 µM (inactive)
COc1cc(Br)cc2nc(-c3cccs3)oc12 | GI50 | > 100 µM (inactive)
O=C1CC(c2ccc(Cl)cc2)C2(C(=O)NC(=S)NC2=O)C(c2ccc(Cl)cc2)C1 (centres undefined) | GI50 | 18.5 µM (inactive)
CCOC(=O)C(NC(C)=O)(Nc1ccc(F)cc1)C(F)(F)F (centres undefined) | GI50 | 83.2 µM (inactive)
CCOC(=O)c1c(C)n(-c2ccc(Cl)cc2)c2c1cc(O)c1[nH]c3c(c12)CCCC3 | GI50 | 29 µM (inactive)
CCNc1cc2oc(=O)cc(C(F)(F)F)c2cc1C | GI50 | > 100 µM (inactive)
O=C(CCCN1CCC2(CC1)NC(=O)c1ccccc1O2)c1ccc(F)cc1 | GI50 | > 100 µM (inactive)
COc1nc(N)c(C(=O)CCl)c(=O)n1C | GI50 | 14.3 µM (inactive)
COc1ccc(N(CN2C(=O)CCC2C(=O)O)C(C)=O)cc1 (centres undefined) | GI50 | > 100 µM (inactive)

The origin of these recorded values is ChEMBL document CHEMBL1201862.
